Sourced from paper PMC6332318

Would you mind telling me the reported pIC50 of each entry?
# experimental-target: HsCDK5/p25 (Homo sapiens, UniProt Q00535)
# Construct: made in house
# Sequence (Q00535 whole entry): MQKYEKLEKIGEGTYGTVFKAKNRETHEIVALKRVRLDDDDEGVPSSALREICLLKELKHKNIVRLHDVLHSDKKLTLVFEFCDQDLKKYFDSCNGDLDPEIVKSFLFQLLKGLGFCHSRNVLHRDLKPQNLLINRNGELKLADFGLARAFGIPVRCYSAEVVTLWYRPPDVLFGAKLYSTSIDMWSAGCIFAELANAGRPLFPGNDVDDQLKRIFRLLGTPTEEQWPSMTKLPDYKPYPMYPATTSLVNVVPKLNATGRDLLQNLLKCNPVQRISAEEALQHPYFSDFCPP
# Sequence (Q15078 99-307 partner limits assumed): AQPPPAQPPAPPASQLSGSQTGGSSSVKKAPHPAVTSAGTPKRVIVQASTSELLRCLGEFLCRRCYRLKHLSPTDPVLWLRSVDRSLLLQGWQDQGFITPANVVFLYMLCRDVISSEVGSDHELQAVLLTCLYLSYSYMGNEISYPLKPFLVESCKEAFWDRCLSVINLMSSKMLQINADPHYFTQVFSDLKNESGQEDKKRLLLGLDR
# test-details: protein kinase assay, [γ-33P] ATP
# Type: biochemical
Keep it numeric: pIC50 is minus log10 of the concentration in mol/L.

Request: pIC50, test system HsCDK5/p25 (Homo sapiens, UniProt Q00535), entry "O=C1/C(=C/c2ccc3c(c2)OCO3)SC(=S)N1CCCCNCc1ccc2c(c1)OCO2"
5.96

// map "O=C1/C(=C/c2ccc3c(c2)OCCO3)SC(=S)N1CCCCNCc1ccc2c(c1)OCO2" to recorded pIC50 (system: HsCDK5/p25 (Homo sapiens, UniProt Q00535))
5.89

###

# System: HCT 116 cells (actively proliferating colorectal adenocarcinoma)
# test-details: in vitro inhibition of cell proliferation / survival assay
# Assay type: cell-based
# recorded-conditions: Homo sapiens, measured at 25 μM after 48 h, single dose, triplicate
quantity-name: viability at 25 µM (%)
Field format: number, assumed %, no unit text.

# input molecule: "COc1ccc(CNCCCCN2C(=O)/C(=C/c3ccc4c(c3)OCCO4)SC2=S)cc1" ; wanted: its viability at 25 µM
97

Need viability at 25 µM, item "COc1cccc(CNCCCCN2C(=O)/C(=C/c3ccc4c(c3)OCCO4)SC2=S)c1"
113

So what does the record say about viability at 25 µM for "O=C1/C(=C/c2ccc3c(c2)OCCO3)SC(=S)N1CCCCNCc1ccc2c(c1)OCO2" ?
8

For the molecule "COc1cc(/C=C2\SC(=S)N(CCCCNCc3ccc4c(c3)OCO4)C2=O)ccc1O" , what viability at 25 µM is on record?
98

For the molecule shown here, "COc1cccc(/C=C2\SC(=S)N(CCCCNCc3cccc(OC)c3)C2=O)c1" , give the reported viability at 25 µM.
118

# get_value(readout='viability at 25 µM', item= "O=C1/C(=C/c2ccc3c(c2)OCO3)SC(=S)N1CCCCNCc1ccc2c(c1)OCCO2" )
106

Could you share which viability at 25 µM value was measured for "COc1ccc(CNCCCCN2C(=O)/C(=C/c3ccc4c(c3)OCO4)SC2=S)cc1" ?
109

Which viability at 25 µM value belongs to "Cl.NCCCCNCc1ccc2c(c1)OCO2" ?
102

###

Could you please report measured pIC50 for the items listed next?
# experimental-target: SsCK1δ/ε
# test-details: protein kinase assay, [γ-33P] ATP
# recorded-conditions: 15 μM ATP; CKS peptide substrate; >10 = inhibitory but IC50 > 10 μM
# Method: Then, we evaluated the intermediates salts 6a–f and fourteen final compounds 9a–n on four protein kinases: HsCDK5-p25 (cyclin-dependant kinase 5-p25), SsGSK-3α/β (glycogen synthase kinase-3α/β) SsCK1δ/ε (Caseine kinase 1) and HsHaspin as an essential mitotic kinase. All assays were run in the presence of 15 μM of ATP and appropriate substrates. IC50 values were determined from dose-response curves. […]
pIC50 (log units): -log10 of the concentration in mol/L.

What reported pIC50 corresponds to O=C1/C(=C/c2ccc3c(c2)OCO3)SC(=S)N1CCCCNCc1ccc2c(c1)OCO2 [Compound 9h] on SsCK1δ/ε?
5.18

Report pIC50 for COc1cc(/C=C2\SC(=S)N(CCCCNCc3ccc4c(c3)OCCO4)C2=O)ccc1O [Compound 9n] tested on SsCK1δ/ε.
5.70

Reported pIC50 for SsCK1δ/ε, given O=C1/C(=C/c2ccc(O)cc2)SC(=S)N1CCCCNCc1ccc2c(c1)OCO2 [Compound 9j] ?
5.85

// fetch SsCK1δ/ε pIC50 for O=C1/C(=C/c2ccc3c(c2)OCCO3)SC(=S)N1CCCCNCc1ccc2c(c1)OCO2 [Compound 9i]
5.27
